- Measurement Target: T1, human prolactin receptor (PRLR) (human, UniProt P16471 25-622)
- T1 sequence: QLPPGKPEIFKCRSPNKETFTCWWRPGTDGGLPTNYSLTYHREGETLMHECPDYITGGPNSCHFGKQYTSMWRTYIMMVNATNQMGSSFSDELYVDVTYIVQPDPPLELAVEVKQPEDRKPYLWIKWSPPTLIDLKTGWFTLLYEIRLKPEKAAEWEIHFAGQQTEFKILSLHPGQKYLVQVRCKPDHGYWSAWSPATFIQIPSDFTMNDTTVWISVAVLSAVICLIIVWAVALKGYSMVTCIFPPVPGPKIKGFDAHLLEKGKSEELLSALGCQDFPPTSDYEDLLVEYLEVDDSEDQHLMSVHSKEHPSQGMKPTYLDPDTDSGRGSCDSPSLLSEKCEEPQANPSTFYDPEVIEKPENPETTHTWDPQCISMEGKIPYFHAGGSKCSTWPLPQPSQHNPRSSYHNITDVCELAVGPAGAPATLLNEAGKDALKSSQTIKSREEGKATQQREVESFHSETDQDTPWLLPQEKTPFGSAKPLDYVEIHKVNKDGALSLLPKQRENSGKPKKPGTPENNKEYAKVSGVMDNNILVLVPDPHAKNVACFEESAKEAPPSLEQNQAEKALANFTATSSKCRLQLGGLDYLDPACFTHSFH
- Procedure Summary: cell-based or functional assay
Assign % Kill, T47D cells to each entry below.
Dear colleague, please return just the value in %, with no unit written.

Prompt line: Identify the reported % Kill, T47D cells for the following entry. H1H6782P-DM1 (antibody, human IgG1, V domains shown, DM1 conjugated through SMCC linker; attachment residues not stated) VH: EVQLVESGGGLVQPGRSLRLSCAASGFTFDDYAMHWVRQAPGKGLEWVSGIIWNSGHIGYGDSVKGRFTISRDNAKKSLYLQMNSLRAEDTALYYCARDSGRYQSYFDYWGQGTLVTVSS VL: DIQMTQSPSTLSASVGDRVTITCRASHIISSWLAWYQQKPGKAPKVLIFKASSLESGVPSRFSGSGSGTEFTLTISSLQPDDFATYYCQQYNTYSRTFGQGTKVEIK
Response line: 74

Prompt line: Identify the reported % Kill, T47D cells for the following entry. H1H6958N2-DM1 (antibody, human IgG1, V domains shown, DM1 conjugated through SMCC linker; attachment residues not stated) VH: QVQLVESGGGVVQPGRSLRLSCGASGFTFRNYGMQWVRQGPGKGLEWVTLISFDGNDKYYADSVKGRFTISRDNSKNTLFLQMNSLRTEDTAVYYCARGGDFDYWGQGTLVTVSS VL: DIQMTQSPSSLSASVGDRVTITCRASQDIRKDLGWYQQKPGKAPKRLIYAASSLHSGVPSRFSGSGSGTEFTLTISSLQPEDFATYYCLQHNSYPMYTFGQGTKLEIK
Response line: 71

Prompt line: Identify the reported % Kill, T47D cells for the following entry. H1H6959N2-DM1 (antibody, human IgG1, V domains shown, DM1 conjugated through SMCC linker; attachment residues not stated) VH: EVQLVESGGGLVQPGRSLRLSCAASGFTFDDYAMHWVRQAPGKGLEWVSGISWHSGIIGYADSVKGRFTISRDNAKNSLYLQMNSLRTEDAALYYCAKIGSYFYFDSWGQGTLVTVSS VL: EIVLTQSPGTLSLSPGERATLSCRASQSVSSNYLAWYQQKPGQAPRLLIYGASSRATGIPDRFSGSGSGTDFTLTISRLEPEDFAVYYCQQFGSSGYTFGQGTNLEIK
Response line: 71

Prompt line: Identify the reported % Kill, T47D cells for the following entry. H1H6765P-DM1 (antibody, human IgG1, V domains shown, DM1 conjugated through SMCC linker; attachment residues not stated) VH: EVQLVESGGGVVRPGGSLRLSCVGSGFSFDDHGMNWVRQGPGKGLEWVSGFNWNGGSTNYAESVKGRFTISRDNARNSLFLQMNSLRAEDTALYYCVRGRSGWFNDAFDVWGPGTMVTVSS VL: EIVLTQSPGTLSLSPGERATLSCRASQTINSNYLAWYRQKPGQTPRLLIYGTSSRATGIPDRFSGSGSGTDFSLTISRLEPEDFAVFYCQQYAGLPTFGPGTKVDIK
Response line: 78

Prompt line: Identify the reported % Kill, T47D cells for the following entry. H1H6800P-DM1 (antibody, human IgG1, V domains shown, DM1 conjugated through SMCC linker; attachment residues not stated) VH: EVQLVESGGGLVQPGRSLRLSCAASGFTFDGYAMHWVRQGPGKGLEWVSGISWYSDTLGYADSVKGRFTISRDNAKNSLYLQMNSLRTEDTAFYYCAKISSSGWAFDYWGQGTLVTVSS VL: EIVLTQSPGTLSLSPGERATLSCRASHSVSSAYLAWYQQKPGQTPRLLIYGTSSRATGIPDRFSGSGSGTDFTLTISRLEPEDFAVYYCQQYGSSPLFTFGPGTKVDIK
Response line: 79

Prompt line: Identify the reported % Kill, T47D cells for the following entry. H1H6803P-DM1 (antibody, human IgG1, V domains shown, DM1 conjugated through SMCC linker; attachment residues not stated) VH: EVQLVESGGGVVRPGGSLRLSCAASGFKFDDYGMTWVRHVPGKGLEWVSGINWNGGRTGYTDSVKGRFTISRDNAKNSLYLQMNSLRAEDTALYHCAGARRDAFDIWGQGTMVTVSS VL: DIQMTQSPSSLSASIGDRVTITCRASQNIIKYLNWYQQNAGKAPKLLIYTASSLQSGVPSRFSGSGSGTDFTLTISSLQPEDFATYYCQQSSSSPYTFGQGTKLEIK
Response line: 77

Prompt line: Identify the reported % Kill, T47D cells for the following entry. H1H6953N-DM1 (antibody, human IgG1, V domains shown, DM1 conjugated through SMCC linker; attachment residues not stated) VH: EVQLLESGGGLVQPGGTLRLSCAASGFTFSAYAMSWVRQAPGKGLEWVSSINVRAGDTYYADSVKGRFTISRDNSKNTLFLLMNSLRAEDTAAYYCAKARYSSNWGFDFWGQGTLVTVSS VL: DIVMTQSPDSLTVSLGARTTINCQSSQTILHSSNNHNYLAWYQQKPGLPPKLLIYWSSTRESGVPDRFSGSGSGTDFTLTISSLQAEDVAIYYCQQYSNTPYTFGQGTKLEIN
Response line: 79

Prompt line: Identify the reported % Kill, T47D cells for the following entry. H1H6793P-DM1 (antibody, human IgG1, V domains shown, DM1 conjugated through SMCC linker; attachment residues not stated) VH: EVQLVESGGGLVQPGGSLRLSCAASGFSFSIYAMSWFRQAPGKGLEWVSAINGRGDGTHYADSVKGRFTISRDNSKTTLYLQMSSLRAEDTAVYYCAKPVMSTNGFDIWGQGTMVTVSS VL: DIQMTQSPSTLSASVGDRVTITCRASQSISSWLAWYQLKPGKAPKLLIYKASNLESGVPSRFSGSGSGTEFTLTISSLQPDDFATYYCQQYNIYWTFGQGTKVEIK
Response line: 53
